Reference source for all entries: patent US20250144067A1

# Tested on: NCI-H292 lung cancer cells
# assay.comment: FDA drug screening, complete media vs cholesterol-free media with simvastatin (TABLE 2)
# Assay type: cell-based, human
# reported.conditions: complete media minus cholesterol-free media + simvastatin (0.04 μM); >0 enhanced anti-cancer activity, about 0 neutral, <0 antagonist
Structures can show the parent of a compound that is named as a salt.
Each entry below carries its recorded Difference.
Form: value (number only, do not type unit).

Illustrative cases are given below, each with its answer.
C#Cc1cccc(Nc2ncnc3cc4c(cc23)OCCOCCOCCO4)c1 [Icotinib (Hydrochloride)] ... −0.05
COC(=O)N[C@H](C(=O)N1CCC[C@H]1c1nc(-c2ccc3c(c2)O[C@@H](c2ccccc2)n2c-3cc3cc(-c4c[nH]c([C@@H]5CCCN5C(=O)[C@@H](NC(=O)OC)C(C)C)n4)ccc32)c[nH]1)C(C)C ... −0.04
Cl.NCCC[C@H](N)C(=O)O [L-Ornithine (hydrochloride)] ... −0.06
CCN(CC)CC(=O)Nc1c(C)cccc1C [Lidocaine (hydrochloride)] ... −0.02

For NS(=O)(=O)c1cc(C(=O)O)c(NCc2ccco2)cc1Cl [Furosemide (sodium)] the compound record lists Difference as −0.05
